- System under test: T1, human SIRPα1 (huSIRPα1), protein antigen (human, UniProt P78324 31-370, limits assumed, biotinylated in the SPR assay)
- T1 construct: Coated on the plate in ELISA, biotinylated and captured in SPR; also called v2
- T1 sequence (P78324 other isoform, or with tags, fused parts or gaps limits assumed): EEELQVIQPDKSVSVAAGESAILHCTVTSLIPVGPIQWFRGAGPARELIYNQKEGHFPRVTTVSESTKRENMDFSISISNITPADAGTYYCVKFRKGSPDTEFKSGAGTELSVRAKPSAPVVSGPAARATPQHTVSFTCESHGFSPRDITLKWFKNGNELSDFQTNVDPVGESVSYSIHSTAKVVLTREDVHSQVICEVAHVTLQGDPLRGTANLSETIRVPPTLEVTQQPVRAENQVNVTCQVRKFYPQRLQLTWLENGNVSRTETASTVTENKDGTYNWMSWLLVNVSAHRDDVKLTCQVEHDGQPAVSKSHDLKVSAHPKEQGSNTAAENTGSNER
- Procedure summary: ELISA, antigen coated
- Protocol: ELISA assay: Solutions of huSIRPα₁, huSIRPαBIT, huSIRPβ₁ᵥ₁, huSIRPβ₁ᵥ₂, huSIRPγ and cySIRPα in phosphate buffered saline (PBS) were each added to a multiple well black polystyrene plate for ELISA and allowed to adhere for 1 h at RT. Unbound protein was removed with three washing steps using standard washing buffer. Subsequently, blocking buffer was added to the wells. After 1 h incubation at RT, the wells were washed three times with standard washing buffer. […] Absorbance was read at 450 nm/620 nm.
Would you mind telling me the reported EC50 of each entry?
Numbers only, in µg/mL.

Binder	Endpoint	Numeric result
anti-SIRPα antibody 2 (antibody, human IgG1, kappa, L234A L235A, V domains shown, Rabbit variable regions on human IgG1 LALA / kappa) VH: QSVEESGGRLVTPGTPLTLTCTVSGFSLSNYAMHWVRQAPGKGLEWIGIIYTGGATSYATWAKGQFTISKTSTTVDLKITSPTTEDTATYFCARGDRDGYAYFNIWGPGTLVTVSL VL: QIVMTQTPFSVSAVVGGTVTIKCQASHNIGSWLAWYQQKPGQRPKLLIYDASTLASGVSSRFKGSGSGTEFTLTISGVESADAATYYCQQGYGISYVHNVFGGGTEVVVKR	EC50	0.033

Next item in the queue.
What does the data say about its EC50? Entry: anti-SIRPα antibody 9 (antibody, human IgG1, kappa, L234A L235A, V domains shown, Rabbit variable regions on human IgG1 LALA / kappa) VH: QSMEESGGRLVTPGTPLTLTCTASGFSLSNYGVSWVRQAPGKGLEWIGIIYGGSDITAYASWAKGRFTISKTSTTVDLTITSPTTEDTATYFCAKSYTNGMDYYNIWGPGTLVTVSL VL: AFDLTQTPSSVEAPVGGTVIIKCQASQSISSYLAWYQQKPGQPPKLLIYSASTLASGVSSRFKGSGSETQFPLTISDLESADAATYYCQSYYGSRSNVFGGGTEVVVKR 0.023
